These measurements were taken from PubChem BioAssay AID2060898.

- Tested on: 616215-338-R-J1-PDC complex spheroid viability;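 further: spheroids exposed to agents for seven days before viability readout; 100% = DMSO vehicle control viability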
- assay.info: Anticancer human tumor 616215-338-R-J1-PDC patient-derived colon adenocarcinoma cell line growth inhibition [RAS]
- assay.setup: second compound 0.00316 µM; first compound 0.0316 µM; hits give low values
attribute.measured: viability, T/C (%)
One number for each entry, in %.

A selection of reference data follows.
molecule: CC(=O)OC12COC1CC(O)C1(C)C(=O)C(O)C3=C(C)C(OC(=O)C(O)C(NC(=O)OC(C)(C)C)c4ccccc4)CC(O)(C(OC(=O)c4ccccc4)C21)C3(C)C (stereo not given) + C=CC(=O)N1CCN(c2nc(OCC3CCCN3C)nc3c(F)c(-c4nc(N)cc(C)c4C(F)(F)F)c(Cl)cc23)C(C)C1
unit.abbreviation: %
viability, T/C: 28
//
molecule: CC1(O)CCCC1n1c(=O)c(C(F)F)cc2cnc(NC3CCN(S(C)(=O)=O)CC3)nc21 (stereo not given) + C=CC(=O)N1CCN(c2nc(OCC3CCCN3C)nc3c(F)c(-c4nc(N)cc(C)c4C(F)(F)F)c(Cl)cc23)C(C)C1
unit.abbreviation: %
viability, T/C: 115
//
molecule: CCC(CC)c1cc(NC2CCC(N)C2)n2nccc2n1 (stereo not given) + C=CC(=O)N1CCN(c2nc(OCC3CCCN3C)nc3c(F)c(-c4nc(N)cc(C)c4C(F)(F)F)c(Cl)cc23)C(C)C1
unit.abbreviation: %
viability, T/C: 101
//
molecule: CC(C)n1nc(-c2ccc3oc(N)nc3c2)c2c(N)ncnc21 + C=CC(=O)N1CCN(c2nc(OCC3CCCN3C)nc3c(F)c(-c4nc(N)cc(C)c4C(F)(F)F)c(Cl)cc23)C(C)C1
unit.abbreviation: %
viability, T/C: 120
//
molecule: C=CC(=O)Nc1cc(Nc2nccc(-c3cn(C)c4ccccc34)n2)c(OC)cc1N(C)CCN(C)C + C=CC(=O)N1CCN(c2nc(OCC3CCCN3C)nc3c(F)c(-c4nc(N)cc(C)c4C(F)(F)F)c(Cl)cc23)C(C)C1
unit.abbreviation: %
viability, T/C: 107

List viability, T/C for every entry below, keeping the order given.
1. O=C(c1ccc(F)c(F)c1Nc1ccc(I)cc1F)N1CC(O)([C@@H]2CCCCN2)C1 + C=CC(=O)N1CCN(c2nc(OCC3CCCN3C)nc3c(F)c(-c4nc(N)cc(C)c4C(F)(F)F)c(Cl)cc23)C(C)C1
2. Nc1ccn(C2OC(CO)C(O)C2(F)F)c(=O)n1 (stereo not given) + C=CC(=O)N1CCN(c2nc(OCC3CCCN3C)nc3c(F)c(-c4nc(N)cc(C)c4C(F)(F)F)c(Cl)cc23)C(C)C1
3. C[C@@H](NC(=O)c1ncnc(N)c1Cl)c1ncc(C(=O)Nc2cc(C(F)(F)F)c(Cl)cn2)s1 + C=CC(=O)N1CCN(c2nc(OCC3CCCN3C)nc3c(F)c(-c4nc(N)cc(C)c4C(F)(F)F)c(Cl)cc23)C(C)C1

Found:
[65.3, 29.3, 109]

List viability, T/C for every entry below, keeping the order given.
1. Cc1nc(N2CCC3(CC2)COC(C)C3N)c(CO)nc1Sc1ccnc(N)c1Cl (stereo not given) + C=CC(=O)N1CCN(c2nc(OCC3CCCN3C)nc3c(F)c(-c4nc(N)cc(C)c4C(F)(F)F)c(Cl)cc23)C(C)C1
2. CCN1CCN(Cc2ccc(Nc3ncc(F)c(-c4cc(F)c5nc(C)n(C(C)C)c5c4)n3)nc2)CC1 + C=CC(=O)N1CCN(c2nc(OCC3CCCN3C)nc3c(F)c(-c4nc(N)cc(C)c4C(F)(F)F)c(Cl)cc23)C(C)C1

Found:
1. 93.3
2. 121
